# targetEntity: EBP (Homo sapiens, UniProt Q15125)
# Construct: HEK293T cells were utilized as the source of EBP enzyme; endogenous in cells
# Sequence (Q15125 whole entry): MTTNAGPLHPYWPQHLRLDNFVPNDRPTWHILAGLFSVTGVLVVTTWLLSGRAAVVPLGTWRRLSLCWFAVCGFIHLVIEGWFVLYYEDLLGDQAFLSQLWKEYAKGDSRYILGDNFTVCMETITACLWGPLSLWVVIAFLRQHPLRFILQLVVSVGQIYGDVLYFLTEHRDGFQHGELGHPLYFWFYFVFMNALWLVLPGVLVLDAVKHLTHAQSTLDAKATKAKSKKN
# methodSummary: EBP Functional Assay (EBP immunoaffinity LC-MS assay)
# experimentalSetup: EBP enzyme from HEK293T cells; 30 min with inhibitor, then zymosterol-d5 at 37° C. for 4 h; percent conversion by LC-APCI MRM MS
The following compounds are listed with their measured IC50 values.

Please review the entries below; each comes with its answer.
N#Cc1cc(F)cc(S(=O)(=O)N2C[C@H]3CN(C4CCOCC4)C[C@H]3C2)c1 = > 500 nM
Cc1nc(C(F)(F)F)ccc1S(=O)(=O)N1C[C@H]2CN(CC3COC3)C[C@@H]2C1 (racemic) = > 500 nM
O=S(=O)(c1ccc(OC(F)F)cc1)N1C[C@H]2C[C@H](NC3CC4(COC4)C3)C[C@H]2C1 = 100 to 500 nM
Cc1nc(C(F)(F)F)ccc1S(=O)(=O)N1C[C@H]2CN(CC34COC(C)(C3)C4)C[C@@H]2C1 (single isomer, unassigned) [Example 56] = 100 to 500 nM
Cn1nc(C2CC2)cc1S(=O)(=O)N1C[C@H]2C[C@H](NCC3(C)COC3)C[C@H]2C1 = < 100 nM

Give the value of IC50 reported for the following: COc1ncc(C)cc1S(=O)(=O)N1C[C@H]2C[C@H](NCC3CCOCC3)C[C@H]2C1
100 to 500 nM

Answer with reported IC50 of Cc1nc(C(F)(F)F)ccc1S(=O)(=O)N1C[C@H]2CN(CC34COC(C)(C3)C4)C[C@@H]2C1 (racemic) [Example 54]
100 to 500 nM

Name the recorded IC50 of the compound listed here: Cc1nc(C(F)(F)F)ccc1S(=O)(=O)N1C[C@@H]2CN(CC34COC(C)(C3)C4)C[C@H]2C1 (single isomer, unassigned)
100 to 500 nM

Hello, please tell me recorded IC50 for this one: O=S(=O)(c1cc(F)cc(F)c1)N1C[C@H]2CN(C3CCOCC3)C[C@H]2C1
100 to 500 nM

Report measured IC50; entry is Cc1nc(C(F)(F)F)ccc1S(=O)(=O)N1C[C@H]2CN(C3CCOCC3)C[C@@H]2C1 (single isomer, unassigned) [Example 48]
100 to 500 nM

Name the recorded IC50 of the item Cc1cc(C)c(S(=O)(=O)N2C[C@H]3C[C@H](NCC4CCOCC4)C[C@H]3C2)cn1 in your answer.
> 500 nM

Return IC50 for the following compound: Cn1nc(C(F)(F)F)cc1S(=O)(=O)N1C[C@H]2CN(C3CCOCC3)C[C@@H]2C1
100 to 500 nM

Give the value of IC50 reported for the following: O=S(=O)(c1ccc(OC(F)F)cc1)N1C[C@H]2C[C@H](NC3COC3)C[C@H]2C1
> 500 nM
